- assay-method-text: label from the status in PepcDB records
quantity: protein production

ordered-residues	quantity	measured-value
MTEITGGTLVLVGADHPVAHLDVTAFEASVTHDVMAASVAGTGLGVSTATAAGLSHLVVDAGVAQPVQGARSVRIRGERGDLRHADAMTPVQVEALLRDGQALGAEASHDGLVCLGEVGVGNTTIATALACAMTGLGPDEAVGLGAGSDTAMVERKAEIIKAALTRTHTDPNDPERLLAALGGPEFAVLAGVCLGAAEAGSPVVLDGLATSVAALIATKFSPGLHGWLVASQASREQVHHIVLAELGLEALMELRMRAGLEHHHHHH	protein production	failed
MSKKSGLSFLWLSAVAFVIDLLTKYIVVQKFDLYESVNVLPVFNLTYVRNYGAAFSFLADHSGWQQYFFILLALAISGMLVYFLAKNNAEQKIQNSAYALIIGGALANMVDRAYNGFVVDFFDFYWDIYHYPVFNIADIAICIGAGLLVLDAFKSEKKKVQDKQVEKCGQK	protein production	failed
MRVEDVMVTDVDTIDITASLEDVLRNYVENAKGSSVVVKEGVRVGIVTTWDVLEAIAEGDDLAEVKVWEVMERDLVTISPRATIKEAAEKMVKNVVWRLLVEEDDEIIGVISATDILRAKMAKRY	protein production	not failed
MRGYYDEISFDVNTTAKKMHLFLMRSIASYDVTPEQWSVLEGIEANEPISQKEIALWTKKDTPTVNRIVDVLLRKELIVREISTEDRRISLLSLTDKGRKETTELRDIVEASCEKMFAGVTRTDLEQFTAILKNISTNIE	protein production	not failed
